- System: HOP-92 NSCLC
- method: NCI tumour cell line growth inhibition, 48 h
endpoint label: TGI

Cc1ccc(NC(=O)C(=O)C(C#N)c2nc(-c3ccc(-c4ccccc4)cc3)cs2)c(C)c1 (stereo unspecified)
> 1 µM
COc1ccc(C(SCC(N)C(=O)O)(c2ccccc2)c2ccccc2)cc1 (stereo unspecified)
66.8 µM
COc1cc(-c2nc3ccccc3s2)ccc1NC(=O)COc1ccc(Cl)cc1
4.99 µM

Prompt: Report TGI under test system HOP-92 NSCLC for N/N=C(\C(=O)Nc1ccc(Cl)cc1Cl)C(c1cnc2ccccc2n1)[N+](=O)[O-] (stereo unspecified) .
Response: > 100 µM

Prompt: Would you please give the reported TGI of COC(=O)C(CC(C)C)NC(=O)NC12CC3CC(CC(F)(C3)C1)C2 (stereo unspecified) with HOP-92 NSCLC?
Response: > 100 µM

Prompt: Please tell me the measured TGI for COC(=O)C(Cc1cc(OC)c(OC)c(OC)c1)c1ccc(OC)cc1 (stereo unspecified) ; system: HOP-92 NSCLC.
Response: > 100 µM
